pKd values for the compounds below.
# Target Or System: WT ITK (His6-tagged human wild-type ITK kinase domain) (Homo sapiens)
# Construct: Ni-NTA, Q Sepharose, Superdex 200
# Assay Comment: SPR (Biacore, NTA capture coupling)
# Type: binding
In textbook form, pKd equals minus log to base ten of the concentration in mol/L.

>>> endpoint_value("CCOC(=O)/C=C1\\CC(=O)Nc2cc(C)c(C)cc2N1")
6.00

Moving on to the next compound.
Request: Look up and state reported pKd for COc1ccc(OCCn2c(NC(=O)c3ccco3)nc3ccccc32)cc1
Result: 5.47

###

# Target Or System: WT ITK (His6-tagged human wild-type ITK kinase domain) (Homo sapiens, UniProt Q08881)
# Construct: Ni-NTA, Q Sepharose, Superdex 200
# Sequence (Q08881 357-620 limits assumed): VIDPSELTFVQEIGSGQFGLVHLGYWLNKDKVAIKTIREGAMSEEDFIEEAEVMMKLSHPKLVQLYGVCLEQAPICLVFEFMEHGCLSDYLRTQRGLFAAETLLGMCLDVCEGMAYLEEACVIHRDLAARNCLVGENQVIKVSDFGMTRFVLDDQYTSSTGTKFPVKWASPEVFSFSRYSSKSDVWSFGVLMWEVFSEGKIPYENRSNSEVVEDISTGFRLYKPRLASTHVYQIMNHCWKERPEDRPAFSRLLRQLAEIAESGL
# Assay Comment: SPR (Biacore, NTA capture coupling)
# Type: binding
# Measurement Setup: read-out: K D
pKd: −log10 of the molar value.
Classification field: label 1 = pKd at or over 7; label 0 = pKd under 7.

Reference set, count: 3
>>> label("CCc1ccc2nc(Nc3cc(Cc4ccccc4)nc(N[C@H]4CC[C@H](O)CC4)n3)sc2c1 [G, GSK compound 13]")
"label 1"
>>> label("COc1cc(C)c(Sc2cnc(NC(=O)c3ccc(CNC(C)C(C)(C)C)cc3)s2)cc1C(=O)N1CCN(C(C)=O)CC1 (centres unmarked) [A, BMS-509744]")
"label 1"
>>> label("CC(C)Oc1ccc2cccc(-n3cc(NC(N)=O)c(C(N)=O)n3)c2c1 [C, Pfizer compound 9]")
"label 1"

# ---- query compound ----
Request: Would you say CC(=O)N1CCCC(n2nc(-c3cccc(C(=O)Nc4ccc(C(C)C)cc4)c3)c3c(N)ncnc32)C1 (centres unmarked) [E, Derivative of D] shows pKd at minimum 7?
Result: label 0
